Conditions: in n-pentanol, 303.15 K
experimental.readout: solubility (mole fraction)
Would you mind answering with just the numeric figure?

QUERY: Complete the entry with solubility (mole fraction) for `O=C(O)CNC(=O)OCc1ccccc1`
RESULT: 0.0429

* * *

Conditions: in n-pentanol, 283.15 K
experimental.readout: solubility (mole fraction)

QUERY: Complete the entry with solubility (mole fraction) for `O=C(O)CNC(=O)OCc1ccccc1`
RESULT: 0.018

* * *

Details: in n-propanol, 313.15 K
experimental.readout: solubility (mole fraction)
Would you mind answering with just the numeric figure?

QUERY: Complete the entry with solubility (mole fraction) for `O=C(O)CNC(=O)OCc1ccccc1`
RESULT: 0.0986

Measured values drawn from BigSolDB 2.1 for this set.
